These measurements were taken from patent US11986471B2.

The following molecules are listed with their measured pIC50 values.
# Tested on: HAP1 MTAP-intact
# methodSummary: SDMA in-cell western assay, HAP1 MTAP-intact cell line
# Type: cell-based
# testParameters: Homo sapiens
pIC50: −log10 of the molar value.
recordedMetric: pIC50

• Cc1ncoc1COc1cc(F)c2c(c1C)CCN(C[C@@H](O)CNC(=O)c1ccnc(NC3CCC3)c1)C2 = ≤ 5.00
• COc1cnc(NC2CCC2)cc1C(=O)NC[C@H](O)CN1CCc2cc(OCc3ocnc3C)ccc2C1 = 5.00 to 6.00
• CC(C)(C)N1CCN(c2cc(C(=O)NC[C@H](O)CN3CCc4cc(OCc5cnco5)ccc4C3)cc(NC3CCC3)n2)CC1 = 5.00 to 6.00
• O=C(NC[C@H](O)CN1CCc2c(ccc(OCc3cnco3)c2Br)C1)c1cc(NC2CCCC2)ncn1 = ≤ 5.00
• CC(=O)N1CC(Nc2cc(C(=O)NC[C@H](O)CN3CCc4cc(OCc5ocnc5C)ccc4C3)nc(C(C)C)n2)C1 = 5.00 to 6.00
• CCCN(C)c1cc(C(=O)NC[C@H](O)CN2CCc3cc(OCc4cnco4)ccc3C2)cc(NC2CCC2)n1 = 5.00 to 6.00
• O=C(NC[C@H](O)CN1CCc2cc(OCc3cnco3)ccc2C1)c1ccc(OC2CCN(Cc3ccccc3)CC2)cc1 = 5.00 to 6.00
• CC(C)C(=O)N1CCN(c2nc(NC3COC3)cc(C(=O)NC[C@H](O)CN3CCc4c(ccc(OCc5cnco5)c4Cl)C3)n2)CC1 = ≤ 5.00
• Cc1ncoc1COc1ccc2c(c1C)CCN(C[C@@H](O)CNC(=O)c1cc(NC3CCCC3)ncn1)C2 = ≤ 5.00
• CN(C)CCOc1cc(C(=O)NC[C@H](O)CN2CCc3cc(OCc4cnco4)ccc3C2)cc(NC2CCC2)n1 = 5.00 to 6.00
• Cc1ncoc1COc1ccc2c(c1C)CCN(C[C@@H](O)CNC(=O)c1ccnc(NC3CCC3)c1)C2 = ≤ 5.00
• Cc1c(OCc2cnco2)ccc2c1CCN(C[C@@H](O)CNC(=O)c1ccnc(NC3CN(C(=O)C4CC4)C3)c1)C2 = ≤ 5.00
• Cc1ncoc1COc1ccc2c(c1)CCN(C[C@@H](O)CNC(=O)c1cc(NC3COC3)nc(N3CCN(C(=O)C4CC4)CC3)n1)C2 = 5.00 to 6.00
• CC(C)CC(=O)N1CCC(Nc2cc(C(=O)NC[C@H](O)CN3CCc4c(ccc(OCc5cnco5)c4Cl)C3)ccn2)CC1 = ≤ 5.00

---

The following molecules are listed with their measured IC50 values.
# systemName: PRMT5 (Homo sapiens, UniProt O14744)
# Construct: purchased Viva (custom protein)
# Sequence (O14744 whole entry): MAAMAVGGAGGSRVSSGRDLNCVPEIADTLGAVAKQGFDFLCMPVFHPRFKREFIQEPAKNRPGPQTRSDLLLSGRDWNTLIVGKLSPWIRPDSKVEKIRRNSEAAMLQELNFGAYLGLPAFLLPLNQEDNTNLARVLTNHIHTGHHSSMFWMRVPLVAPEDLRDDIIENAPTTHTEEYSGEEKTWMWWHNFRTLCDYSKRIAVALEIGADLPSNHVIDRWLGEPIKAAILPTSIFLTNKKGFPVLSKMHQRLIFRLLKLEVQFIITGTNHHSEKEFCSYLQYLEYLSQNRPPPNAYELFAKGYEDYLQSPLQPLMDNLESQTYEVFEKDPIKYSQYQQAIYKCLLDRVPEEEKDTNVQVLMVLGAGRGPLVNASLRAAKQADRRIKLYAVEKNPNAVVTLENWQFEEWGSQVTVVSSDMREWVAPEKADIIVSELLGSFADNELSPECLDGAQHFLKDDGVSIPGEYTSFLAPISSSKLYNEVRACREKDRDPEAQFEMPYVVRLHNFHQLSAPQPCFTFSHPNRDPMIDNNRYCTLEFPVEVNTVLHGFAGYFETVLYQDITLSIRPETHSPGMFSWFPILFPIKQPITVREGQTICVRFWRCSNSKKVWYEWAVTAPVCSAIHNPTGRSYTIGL
# Sequence (Q9BQA1 whole entry partner): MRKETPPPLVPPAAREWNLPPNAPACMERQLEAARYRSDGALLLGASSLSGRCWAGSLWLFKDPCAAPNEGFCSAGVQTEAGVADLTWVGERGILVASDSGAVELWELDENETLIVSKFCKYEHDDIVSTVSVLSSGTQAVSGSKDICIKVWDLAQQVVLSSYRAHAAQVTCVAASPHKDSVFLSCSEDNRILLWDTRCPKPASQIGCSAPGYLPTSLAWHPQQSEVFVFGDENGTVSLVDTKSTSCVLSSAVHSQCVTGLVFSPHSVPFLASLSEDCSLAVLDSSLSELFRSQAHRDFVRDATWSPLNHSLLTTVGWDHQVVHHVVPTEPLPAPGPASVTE
# methodSummary: PRMT5 IC50 assay with no cofactor
# Assay type: biochemical
recordedMetric: IC50

• CC(C)C(=O)N1CCC(Nc2cc(C(=O)NC[C@H](O)CN3CCc4cc(OCc5cnco5)ccc4C3)ccn2)CC1 [Compound 458] = 0.5 to 5 µM
• CC(=O)N1CCC(Nc2cc(C(=O)NC[C@H](O)CN3CCc4cc(OCc5ocnc5C)ccc4C3)cc(N3CCN(C(C)=O)CC3)n2)CC1 [Compound 594] = 0.5 to 5 µM
• CC(=O)N1CCN(c2cc(C(=O)NC[C@H](O)CN3CCc4cc(OCc5cnco5)ccc4C3)cc(NC3CCC3)n2)CC1 [Compound 497] = 0.5 to 5 µM
• Cc1c(OCc2cnco2)ccc2c1CCN(C[C@@H](O)CNC(=O)c1ccnc(NC34CC(C3)C4)c1)C2 [Compound 514] = ≥ 5 µM
• Cc1ncoc1COc1ccc2c(c1)CCN(C[C@@H](O)CNC(=O)c1cc(NC3COC3)nc(N3CCN(C(C)C)CC3)n1)C2 [Compound 492] = ≥ 5 µM
• COc1ccc(C(=O)N2CCc3cc(C(=O)NC[C@H](O)CN4CCc5cc(OCc6ocnc6C)ccc5C4)ccc3C2)cc1 [Compound 498] = 0.5 to 5 µM
• CC(=O)N1CCC(Nc2ccnc(C(=O)NC[C@H](O)CN3CCc4c(ccc(OCc5cnco5)c4C)C3)c2)CC1 [Compound 559] = 0.5 to 5 µM
• Cc1c(OCc2cnco2)ccc2c1CCN(C[C@@H](O)CNC(=O)c1cc(NC3CCN(C(=O)C(C)C)CC3)ncn1)C2 [Compound 520] = ≥ 5 µM
• CC(=O)N1CCN(c2cc(C(=O)NC[C@H](O)CN3CCc4c(ccc(OCc5cnco5)c4Cl)C3)cc(NC3CCC3)n2)CC1 [Compound 545] = 0.5 to 5 µM
• Cc1ncoc1COc1ccc2c(c1)CCN(C[C@@H](O)CNC(=O)c1cc(NC3CC4(CC4)C3)nc(N3CCN(C(=O)C4CC4)CC3)c1)C2 [Compound 611] = 0.05 to 0.5 µM
• CO[C@H]1CC[C@@H](Nc2cc(C(=O)NC[C@H](O)CN3CCc4c(ccc(OCc5cnco5)c4C)C3)ncn2)CC1 [Compound 541] = ≥ 5 µM
• CC(C)C(=O)N1CCC(Nc2cc(C(=O)NC[C@H](O)CN3CCc4c(ccc(OCc5cnco5)c4Cl)C3)ccn2)CC1 [Compound 452] = 0.5 to 5 µM
• COc1cnc(NC2CCC2)cc1C(=O)NC[C@H](O)CN1CCc2cc(OCc3ocnc3C)ccc2C1 [Compound 602] = 0.5 to 5 µM

---

# systemName: PRMT5 (Homo sapiens)
# Construct: purchased Viva (custom protein)
# methodSummary: PRMT5 IC50 assay in the presence of SAM as cofactor
# Format: biochemical
recordedMetric: IC50

* CC(=O)N1CC(Nc2cc(C(=O)NCC(O)CN3CCc4c(C)c(OCc5ocnc5C)cc(F)c4C3)nc(N3CCCCC3)n2)C1 (stereo not drawn) | 50 to 500 nM
* O=C(NC[C@H](O)CN1CCc2c(ccc(OCc3cnco3)c2Cl)C1)c1ccc(OC2CCN(Cc3ccncc3)CC2)cc1 | 50 to 500 nM
* COc1ccc(C(=O)N2CCc3cc(C(=O)NC[C@H](O)CN4CCc5c(ccc(OCc6ocnc6C)c5C)C4)ccc3C2)cc1 | 50 to 500 nM
* COc1ccc(C(=O)N2CCc3cc(C(=O)NC[C@H](O)CN4CCc5c(ccc(OCc6cnco6)c5C)C4)ccc3C2)cc1 | 50 to 500 nM
* CC(=O)N1C[C@@H]2[C@H](C1)[C@H]2Nc1cc(C(=O)NC[C@H](O)CN2CCc3cc(OCc4ocnc4C)ccc3C2)ncn1 | 500 to 5000 nM
* Cc1ncoc1COc1ccc2c(c1)CCN(C[C@@H](O)CNC(=O)c1cc(NC3COC3)nc(N3CCN(C(=O)C4CC4)CC3)n1)C2 | 50 to 500 nM

---

Below: a set of entries, each annotated with reported IC50.
# systemName: PRMT5 (Homo sapiens)
# Construct: purchased Viva (custom protein)
# methodSummary: PRMT5 IC50 assay in the presence of SAM as cofactor
# Type: biochemical
recordedMetric: IC50

- Cc1c(OCc2cnco2)ccc2c1CCN(C[C@@H](O)CNC(=O)c1cncc(NC3CCOC3)c1)C2 (some centres unmarked): 500 to 5000 nM
- CC(=O)N1CCC(Nc2cc(C(=O)NC[C@H](O)CN3CCc4c(ccc(OCc5conc5C)c4Cl)C3)ncn2)CC1: 500 to 5000 nM
- O=C(NC[C@H](O)CN1CCc2c(ccc(OCc3cnco3)c2Cl)C1)c1cc(NC2COC2)nc(N2CCN(C(=O)C3CC3)CC2)n1: 50 to 500 nM
- Cc1ncoc1COc1ccc2c(c1C)CCN(C[C@@H](O)CNC(=O)c1ccc3c(c1)CCN(C(=O)c1ccc(Br)cc1)C3)C2: 50 to 500 nM
- CC(=O)N1CC(Nc2cc(C(=O)NC[C@H](O)CN3CCc4c(ccc(OCc5ocnc5C)c4C)C3)nc(C(C)(C)C)n2)C1: 50 to 500 nM
- CC(=O)N1CC(Nc2cc(C(=O)NC[C@H](O)CN3CCc4cc(OCc5ocnc5C)ccc4C3)cc(N3CCCCC3)n2)C1: 50 to 500 nM
- Cc1ncoc1COc1ccc2c(c1)CCN(C[C@@H](O)CNC(=O)c1cc(NC3CCC3)ncc1Cl)C2: 50 to 500 nM
- COc1ccc(C(=O)N2CCc3cc(C(=O)NC[C@H](O)CN4CCc5cc(OCc6ocnc6C)c(F)cc5C4)ccc3C2)cc1: 50 to 500 nM
- O=C(NC[C@H](O)CN1CCc2c(ccc(OCc3cnco3)c2Cl)C1)c1ccnc(NC2CC(F)(F)C2)c1: 500 to 5000 nM
- CCN(C)c1cc(C(=O)NC[C@H](O)CN2CCc3c(ccc(OCc4ocnc4C)c3C)C2)cc(NC2CCC2)n1: 500 to 5000 nM
- CC(=O)N1CCC(Nc2cc(C(=O)NC[C@H](O)CN3CCc4nc(OCc5ocnc5C)ccc4C3)ncn2)CC1: 50 to 500 nM
- CNC(=O)CN1CCC(Nc2cc(C(=O)NC[C@H](O)CN3CCc4c(ccc(OCc5cnco5)c4C)C3)ncn2)CC1: 500 to 5000 nM
- O=C(NC[C@H](O)CN1CCc2c(ccc(OCc3cnco3)c2Br)C1)c1ccnc(NC2CCCC2)c1: 50 to 500 nM
- CC(=O)N1CC[C@H](Nc2cc(C(=O)NC[C@H](O)CN3CCc4cc(OCc5ocnc5C)ccc4C3)ccn2)C[C@H]1C: 50 to 500 nM
